SYSTEM UNDER TEST: HLA A*3201 (Homo sapiens, UniProt P04439, A270S/D101S/D185E/E176V/E277Q/F133L/G103R/G107R/G231S/H175R/I121M/I218V/I322F/K168Q/L105A/L300P/L318F/M331R/P208A/P217A/Q94H/R106L/R138Q/S129P/T104I/T323A/T345S/V100E/V321M/V358M)
TEST DESCRIPTION: biochemical
Format: binding
Where a SMILES comes first, the peptide text is derived from it.
OBSERVATION TYPE: pIC50
pIC50 is a log-scale quantity: -log10 of the concentration expressed in molar.

// solved cases for pIC50 follow
CC[C@H](C)[C@H](NC(=O)[C@H](CC(C)C)NC(=O)[C@H](Cc1ccccc1)NC(=O)[C@@H](NC(=O)[C@H](CO)NC(=O)[C@H](Cc1ccc(O)cc1)NC(=O)[C@H](CC(C)C)NC(=O)[C@@H](N)CCCNC(=N)N)[C@@H](C)CC)C(=O)N[C@@H](Cc1ccccc1)C(=O)O [3102.1049] (H-RLYSIFLIF-OH)	8.16
CC[C@H](C)[C@H](NC(=O)[C@H](Cc1ccccc1)NC(=O)[C@@H](NC(=O)[C@H](CCC(N)=O)NC(=O)[C@@H](N)CCCNC(=N)N)[C@@H](C)CC)C(=O)N[C@@H](Cc1c[nH]cn1)C(=O)N[C@@H](Cc1ccc(O)cc1)C(=O)N[C@@H](CO)C(=O)N[C@H](C(=O)O)C(C)C [3102.0296] (H-RQIFIHYSV-OH)	9.00

Consider the record given below.
INPUT: Note down pIC50 recorded for CC[C@H](C)[C@H](N)C(=O)N[C@@H](CO)C(=O)N[C@@H](CC(C)C)C(=O)N[C@@H](Cc1ccccc1)C(=O)N[C@@H](Cc1ccc(O)cc1)C(=O)N[C@H](C(=O)N[C@@H](Cc1ccccc1)C(=O)N[C@@H](C)C(=O)N[C@H](C(=O)O)[C@@H](C)CC)[C@@H](C)O [3102.0415] (H-ISLFYTFAI-OH)
OUTPUT: 9.24

Numbers sourced from paper PMC2248166.
